systemTested: Bifunctional dihydrofolate reductase-thymidylate synthase (Toxoplasma gondii, UniProt Q07422)
Sequence (Q07422 whole entry): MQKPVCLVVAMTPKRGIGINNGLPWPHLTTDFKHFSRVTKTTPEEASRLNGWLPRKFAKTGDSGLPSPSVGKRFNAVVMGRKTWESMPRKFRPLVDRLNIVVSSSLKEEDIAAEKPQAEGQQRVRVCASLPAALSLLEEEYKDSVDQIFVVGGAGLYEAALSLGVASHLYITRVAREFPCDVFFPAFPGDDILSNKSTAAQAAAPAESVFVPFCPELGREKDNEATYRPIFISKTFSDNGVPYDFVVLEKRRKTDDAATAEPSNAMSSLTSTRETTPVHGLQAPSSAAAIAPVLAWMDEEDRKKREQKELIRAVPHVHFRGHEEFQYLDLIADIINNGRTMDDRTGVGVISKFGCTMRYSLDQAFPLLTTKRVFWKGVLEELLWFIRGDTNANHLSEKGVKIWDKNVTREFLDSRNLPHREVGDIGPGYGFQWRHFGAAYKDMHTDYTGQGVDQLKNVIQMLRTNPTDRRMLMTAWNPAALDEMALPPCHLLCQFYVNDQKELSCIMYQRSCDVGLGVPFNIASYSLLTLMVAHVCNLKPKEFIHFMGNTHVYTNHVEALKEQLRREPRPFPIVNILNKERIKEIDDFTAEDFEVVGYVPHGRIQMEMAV
testName: Inhibition of Toxoplasma gondii dihydrofolate reductase
Entries are sorted into classes by IC50 as follows: small value (below 0.04 µM), mid value (0.04 µM to below 0.3 µM), large value (0.3 µM or more)

Q: // return the class label for `COc1ccccc1NCc1cnc2nc(N)nc(N)c2c1C`
A: small value

Q: // return the class label for `Cc1c(C)c(-n2cccc2)c(C)c(C)c1NNCc1cnc2nc(N)nc(N)c2c1C`
A: mid value

Q: // return the class label for `Nc1nc(N)c2cc(NCc3cccc4ccccc34)ccc2n1`
A: mid value

Q: // return the class label for `COc1cc(CN(C)c2cnc3nc(N)nc(N)c3c2)cc(OC)c1`
A: small value

Q: // return the class label for `COc1cc(N(C)Cc2ccc3nc(N)nc(N)c3n2)cc(OC)c1OC`
A: mid value

Q: // return the class label for Nc1nc(N)c2c(n1)CCC(CNc1cccc(Cl)c1)C2 (stereo unspecified)
A: mid value

Q: // return the class label for `Cc1c(CN(C)c2ccc(Cl)cc2)cnc2nc(N)nc(N)c12`
A: small value

Q: // return the class label for `COc1ccc(CNc2cnc3nc(N)nc(N)c3c2)c(OC)c1OC`
A: large value

Q: // return the class label for `COc1cc(NNCc2cnc3nc(N)nc(N)c3c2C)c(-n2cccc2)cc1OC`
A: large value

Q: // return the class label for `COc1cc(OC)c(CN(C)c2ccc3nc(N)nc(N)c3c2)c(OC)c1`
A: large value

Q: // return the class label for COc1cc(CCC2CNc3nc(N)nc(N)c3C2)cc(OC)c1OC (stereo unspecified)
A: large value

* * *

systemTested: Dihydrofolate reductase (Pneumocystis carinii, UniProt P16184)
Sequence (P16184 whole entry): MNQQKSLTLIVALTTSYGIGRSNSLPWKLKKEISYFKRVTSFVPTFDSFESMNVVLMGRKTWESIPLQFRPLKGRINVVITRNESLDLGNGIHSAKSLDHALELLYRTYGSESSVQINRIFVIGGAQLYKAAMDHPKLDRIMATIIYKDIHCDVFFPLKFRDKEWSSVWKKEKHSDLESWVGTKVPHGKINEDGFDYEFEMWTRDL
testName: Inhibition of Pneumocystis carinii dihydrofolate reductase
The threshold is 0.3 µM. Values of IC50 beneath it are tagged 1 (yes); values meeting or exceeding it are tagged 0 (no).

Q: # strict comparison: is reported IC50 < 0.3 µM? input = `COc1ccc(OC)c(N(C)Cc2ccc3nc(N)nc(N)c3n2)c1`
A: 1 (yes)

Q: # strict comparison: is reported IC50 < 0.3 µM? input = `CN(Cc1cccc2ccccc12)c1ccc2nc(N)nc(N)c2c1`
A: 1 (yes)

Q: # strict comparison: is reported IC50 < 0.3 µM? input = `Nc1nc(N)c2nc(CNc3cc(Cl)ccc3Cl)ccc2n1`
A: 0 (no)

Q: # strict comparison: is reported IC50 < 0.3 µM? input = `Nc1nc(N)c2nc(CNc3ccc(Cl)cc3Cl)ccc2n1`
A: 0 (no)

Q: # strict comparison: is reported IC50 < 0.3 µM? input = `CN(Cc1ccc2nc(N)nc(N)c2n1)c1c(Cl)cccc1Cl`
A: 1 (yes)

Q: # strict comparison: is reported IC50 < 0.3 µM? input = `Nc1nc(N)c2nc(CSc3ccccc3)ccc2n1`
A: 0 (no)

Q: # strict comparison: is reported IC50 < 0.3 µM? input = `CN(Cc1ccc2nc(N)nc(N)c2n1)c1ccccc1`
A: 1 (yes)

Q: # strict comparison: is reported IC50 < 0.3 µM? input = `COc1cc(N(C)Cc2ccc3nc(N)nc(N)c3n2)cc(OC)c1OC`
A: 1 (yes)

Q: # strict comparison: is reported IC50 < 0.3 µM? input = `Nc1nc(N)c2nc(CNc3ccccc3)ccc2n1`
A: 0 (no)

Q: # strict comparison: is reported IC50 < 0.3 µM? input = `COc1ccccc1NCc1ccc2nc(N)nc(N)c2n1`
A: 0 (no)

Q: # strict comparison: is reported IC50 < 0.3 µM? input = `Nc1nc(N)c2nc(CNc3ccc(Cl)c(Cl)c3)ccc2n1`
A: 0 (no)

Q: # strict comparison: is reported IC50 < 0.3 µM? input = `COc1ccccc1N(C)Cc1ccc2nc(N)nc(N)c2n1`
A: 0 (no)

* * *

Consider the following molecules; for each one, report its IC50.
systemTested: Bifunctional dihydrofolate reductase-thymidylate synthase (Toxoplasma gondii, UniProt Q07422)
testName: Inhibition of Toxoplasma gondii dihydrofolate reductase
Kindly answer with a numeric value in nM, unit omitted.

In plain terms, `COc1cc(CN(C)c2cnc3nc(N)nc(N)c3c2)cc(OC)c1` has a documented IC50 of 31

In plain terms, `COc1cc(OC)c(CN(C)c2ccc3nc(N)nc(N)c3c2)c(OC)c1` has a documented IC50 of 950

In plain terms, COc1cc(CCC2CNc3nc(N)nc(N)c3C2)cc(OC)c1OC (stereo unspecified) has a documented IC50 of 1100

In plain terms, `COc1cc(N(C)Cc2ccc3nc(N)nc(N)c3n2)cc(OC)c1OC` has a documented IC50 of 44

In plain terms, COc1cc(C(C)Nc2cnc3nc(N)nc(N)c3c2)cc(OC)c1OC (stereo unspecified) has a documented IC50 of 182

In plain terms, `Cc1c(CN(C)c2ccc(Cl)cc2)cnc2nc(N)nc(N)c12` has a documented IC50 of 1.7

In plain terms, `COc1cc(NNCc2cnc3nc(N)nc(N)c3c2C)c(-n2cccc2)cc1OC` has a documented IC50 of 600

In plain terms, `CN(Cc1cccc2ccccc12)c1ccc2nc(N)nc(N)c2c1` has a documented IC50 of 21

In plain terms, `COc1ccc(-c2ccccc2)cc1NNCc1cnc2nc(N)nc(N)c2c1C` has a documented IC50 of 68.1

In plain terms, `Nc1nc(N)c2cc(NCc3cccc4ccccc34)ccc2n1` has a documented IC50 of 99

In plain terms, `Cc1c(CN(C)c2ccccc2)cnc2nc(N)nc(N)c12` has a documented IC50 of 6.3

In plain terms, `COc1ccc(CNc2cnc3nc(N)nc(N)c3c2)c(OC)c1OC` has a documented IC50 of 350

In plain terms, `COc1ccccc1NCc1cnc2nc(N)nc(N)c2c1C` has a documented IC50 of 7.4

In plain terms, Nc1nc(N)c2c(n1)CCC(CNc1cccc(Cl)c1)C2 (stereo unspecified) has a documented IC50 of 78

In plain terms, `COc1cc(NCc2cnc3nc(N)nc(N)c3c2C)c(O)cc1-n1cccc1` has a documented IC50 of 33

In plain terms, `Cc1c(C)c(-n2cccc2)c(C)c(C)c1NNCc1cnc2nc(N)nc(N)c2c1C` has a documented IC50 of 75
